Exercise: for every item that follows, state its recorded pKd.
Target desc: T1, Recombinant human HER2 (human, UniProt P04626 23-652)
T1 construct: extracellular domain; Analyte of the SPR assays; also called HER2 ECD; ECD2 of HER2
Assay remarks: SPR as in Example 3, average of three independent runs
Scale explanation: pKd corresponds to minus log10 of a concentration expressed in moles per litre.

Prompt: Name the reported pKd value associated with the binder Variant 4431 (antibody, name in Kabat numbering, V domains shown, also called literature pertuzumab variant) VH: EVQLVESGGGLVQPGGSLRLSCAASGFTFTDYTMDWVRQAPGKGLEWVADVNPNSGGSIYNQRFKGRFTLSVDRSKNTLYLQMNSLRAEDTAVYYCARNLGPSFYFDYWGQGTLVTVSS VL: DIQMTQSPSSLSASVGDRVTITCKASQDVSAGVAWYQQKPGKAPKLLIYSASYRYTGVPSRFSGSGSGTDFTLTISSLQPEDFATYYCQQYYIYPYTFGQGTKVEIK
Response: 8.30

Prompt: Name the reported pKd value associated with the binder Variant 4436 (antibody, name in Kabat numbering, V domains shown, also called literature pertuzumab variant) VH: EVQLVESGGGLVQPGGSLRLSCAASGFTFTDYTMDWVRQAPGKGLEWVADVNPNSGGSIYNQRVKGRFTLSVDRSKNTLYLQMNSLRAEDTAVYYCARNLGPSFYFDYWGQGTLVTVSS VL: DIQMTQSPSSLSASVGDRVTITCKASQDVSIGVAWYQQKPGKAPKLLIYSASYRYTGVPSRFSGSGSGTDFTLTISSLQPEDFATYYCQQYYIYPYTFGQGTKVEIK
Response: 8.24

Prompt: Name the reported pKd value associated with the binder Variant 4434 (antibody, name in Kabat numbering, V domains shown, also called literature pertuzumab variant) VH: EVQLVESGGGLVQPGGSLRLSCAASGFTFADYTMDWVRQAPGKGLEWVADVNPNSGGSIYNQRFKGRFTLSVDRSKNTLYLQMNSLRAEDTAVYYCARNLGPSFYFDYWGQGTLVTVSS VL: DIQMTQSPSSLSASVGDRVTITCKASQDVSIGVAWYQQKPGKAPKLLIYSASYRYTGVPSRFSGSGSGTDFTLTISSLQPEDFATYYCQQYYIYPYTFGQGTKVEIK
Response: 8.40

Data origin, for the record: patent US20180273635A1
